Measured AD38 Viability Normalized Result (cmpd/DMSO %) at 10 μM accompanies every entry in the list below.
# System: AD38 cells
# experimental_protocol: Viability of AD38 cells (Promega CellTiter-Glo)
# Format: cell-based
# run_conditions: 10 μM compound, 6 days, CellTiter-Glo luminescence normalized to DMSO control (100%)
recorded_endpoint: AD38 Viability Normalized Result (cmpd/DMSO %) at 10 μM

molecule | recorded_value
CN(C)c1ccnc(-c2ncc(CNC(=O)c3ccc4c(c3)NC(=O)c3ccccc3S4(=O)=O)s2)c1 | 98
O=C(O)COc1ccc(-c2ncc(CNC(=O)c3ccc4c(c3)NC(=O)c3ccccc3S4(=O)=O)s2)cc1 | 93
Cc1c(C(=O)NCc2cnc(-c3ccc(C#N)cc3F)s2)ccc2c1NC(=O)c1ccccc1S2(=O)=O | 87
O=C(NCc1cnc(N2CCCCCC2)s1)c1ccc2c(c1)NC(=O)c1ccccc1S2(=O)=O | 85
CN(C)CCCS(=O)(=O)c1ccc(-c2ncc(CNC(=O)c3ccc4c(c3)NC(=O)c3ccccc3S4(=O)=O)s2)cc1.O=C(O)C(F)(F)F | 95
CC1c2ccc(C(=O)NCc3cnc(-c4ccc(O)cc4)s3)cc2NC(=O)c2ccccc21 (centres unmarked) | 93
O=C(NCc1cnc(-c2ccc3[nH]ncc3c2)s1)c1ccc2c(c1)NC(=O)c1ccccc1S2(=O)=O | 97
CN(C)CCCCc1cnn(-c2ncc(CNC(=O)c3ccc4c(c3)NC(=O)c3ccccc3S4(=O)=O)s2)c1 | 90
CC(C)(C)NC(=O)c1ccc(-c2ncc(CNC(=O)c3ccc4c(c3)NC(=O)c3ccccc3S4(=O)=O)s2)cc1 | 101
O=C(NCc1cnc(-c2cccnc2)s1)c1ccc2c(c1)NC(=O)c1ccccc1S2(=O)=O | 98
N#Cc1ccc(-c2ncc(CNC(=O)c3ccc4c(c3)NC(=O)c3cccc(F)c3S4(=O)=O)s2)cc1 | 89
CC(C)N(C)CCCOc1ccc(-c2ncc(CNC(=O)c3ccc4c(c3)NC(=O)c3ccccc3S4(=O)=O)s2)cc1 | 89
CN1CCC(COc2ccc(-c3ncc(CNC(=O)c4ccc5c(c4)NC(=O)c4ccccc4S5(=O)=O)s3)cc2)CC1.Cl | 96
N#Cc1ccc(-c2ncc(CNC(=O)c3ccc4c(c3Cl)NC(=O)c3ccccc3S4(=O)=O)s2)c(F)c1 | 62
O=C(NCc1cnc(-c2ccc(-c3cc[nH]n3)cc2)s1)c1ccc2c(c1)NC(=O)c1ccccc1S2(=O)=O | 118
Cc1c(C(=O)NCc2cnc(-n3cc(F)cn3)s2)ccc2c1NC(=O)c1ccccc1S2(=O)=O | 98
O=C1CCc2cc(-c3ncc(CNC(=O)c4ccc5c(c4)NC(=O)c4ccccc4S5(=O)=O)s3)ccc2N1 | 101
O=C(Nc1ncc(Cl)s1)c1ccc2c(c1)NC(=O)c1ccccc1S2(=O)=O | 79
O=C(NCc1cnc(-c2ccc(OCCCN3CCOCC3)cc2)s1)c1ccc2c(c1)NC(=O)c1ccccc1S2(=O)=O | 96
COC(=O)c1ccc(-c2ncc(CNC(=O)c3ccc4c(c3)NC(=O)c3ccccc3O4)s2)cc1 | 101
O=C(NCc1cnc(N2CCS(=O)(=O)CC2)s1)c1ccc2c(c1)NC(=O)c1ccccc1S2(=O)=O | 98
CC(C)(C)c1ncc(CNC(=O)c2ccc3c(c2)NC(=O)c2ccccc2S3(=O)=O)s1 | 96
CC(C)(NC(=O)c1ccc2c(c1)NC(=O)c1ccccc1S2)c1cncs1 | 105
CN(C)CCCOc1ccc(-c2ncc(CNC(=O)c3ccc4c(c3)NC(=O)c3ccccc3S4(=O)=O)s2)nc1 | 98
CN(C)CCOc1ncc(CN(C)C(=O)c2ccc3c(c2)NC(=O)c2ccccc2O3)s1 | 102
O=C1CCCCN(c2ncc(CNC(=O)c3ccc4c(c3)NC(=O)c3ccccc3S4(=O)=O)s2)C1 | 95
Cl.O=C(NCc1cnc(-c2ccc(OCC3CCCNC3)cc2)s1)c1ccc2c(c1)NC(=O)c1ccccc1S2(=O)=O (centres unmarked) | 104
CNc1ncc(CNC(=O)c2ccc3c(c2)NC(=O)c2ccccc2S3)s1 | 97
Cc1ncc(CNC(=O)c2ccc3c(=O)c4ccccc4c(=O)[nH]c3c2)s1 | 99

Values were extracted from patent US11814376B2.
